Let's look at some molecules and their measured Kd.
# tested-on: Influenza A virus M2 proton channel (A/TW/4845/1999 H1N1)
# method: M2 proton channel binding, NMR based, influenza A virus H1N1 strain (AID 1549)
# stated-conditions: NMR binding screen, M2 protein
The source made the active and inactive calls. How the calls were made is not given here.

The examples below pair each entry with its known result.
molecule | Kd
C[C@@H]1CC[C@@]2(OC1)OC1CC3C4CC=C5C[C@@H](O)CC[C@]5(C)C4CC[C@]3(C)C1[C@@H]2C (stereo partly drawn) | > 4 mM (inactive)
O=C(c1ccco1)N1CCN(c2ccc(Cl)cc2)CC1 | > 4 mM (inactive)
C=CCSCC=C | > 4 mM (inactive)
CC(C)NC1CS(=O)(=O)CC1O (stereo not drawn) | > 4 mM (inactive)
CC(=O)c1ccc2c(c1)OCCO2 | > 4 mM (inactive)
O=C(O)c1cc(F)cc2c1OCOC2 | > 4 mM (inactive)

Lookup: I'd like to know its Kd. The molecule in question is O=C1OC(N2CCOCC2)c2ccccc21 (stereo not drawn)
Found: > 4 mM (inactive)

Lookup: Sample CC(=O)Nc1cnn(-c2ccccc2)c(=O)c1Cl — what was its Kd?
Found: > 4 mM (inactive)

* * *

# tested-on: Influenza A virus M2 proton channel (A/TW/4845/1999 H1N1)
# method: M2 proton channel binding, NMR based, influenza A virus H1N1 strain (AID 1549)
# stated-conditions: NMR binding screen, M2 protein
The source made the active and inactive calls. The rule behind the calls is not given here.
Recorded Kd values for a group of compounds are listed next.

Some compounds with known Kd results, for comparison:
compound | result
Cc1ccc2nc(SCC(=O)O)nc(C)c2c1 | > 4 mM (inactive)
Cc1ccc(-c2nc(-c3cccnc3)no2)c(C)c1 | > 4 mM (inactive)
CC1(C)C(=O)CC[C@@]2(C)C1C[C@@H](O)[C@@]1(C)C3=CC(=O)O[C@@H](c4ccoc4)[C@]3(C)CCC21 (stereo partly specified) | > 4 mM (inactive)
C[C@]12CC(=O)C3C(CC[C@@H]4C[C@H](O)CC[C@]34C)C1CC[C@]2(O)C(=O)CO (stereo partly specified) | > 4 mM (inactive)
Cc1cc(O)c2c(c1O)C(=O)c1c(O)cc(C)c(O)c1C2=O | > 4 mM (inactive)
O=C(O)Cc1noc2ccccc12 | > 4 mM (inactive)
CC1=CC(=O)NC2C=CC=CC12 (stereo unspecified) | > 4 mM (inactive)
N#Cc1c(N)c(C(=O)c2ccccc2)n2c1CCC2 | > 4 mM (inactive)

Lookup: What measured Kd goes with CC(=O)C1CCC2C3CCC4C[C@H](O)CCC4(C)C3C[C@H](O)C12C (stereo partly specified) ?
Found: > 4 mM (inactive)

Lookup: Dear colleague, I am looking for the recorded Kd of the following compound: O=C(c1ccccc1)N1CCNCC1
Found: > 4 mM (inactive)

Lookup: Name the reported Kd value associated with the compound O=C(Nc1ccc2c(c1)OCCO2)c1c(F)cccc1F
Found: > 4 mM (inactive)

* * *

# tested-on: Influenza A virus M2 proton channel (A/TW/4845/1999 H1N1)
# method: M2 proton channel binding, NMR based, influenza A virus H1N1 strain (AID 1549)
# stated-conditions: NMR binding screen, M2 protein
Calls of active or inactive are those of the source. No rule for the calls is given here.
// reported Kd per item

These solved cases illustrate the format of a correct answer.
compound | tested-on | result
Cc1nc2ccccc2c(=O)n1N1C(=O)CCCC1=O | Influenza A virus M2 proton channel (A/TW/4845/1999 H1N1) | > 4 mM (inactive)
CC(=O)c1cnc2nc(C(F)(F)F)nn2c1C | Influenza A virus M2 proton channel (A/TW/4845/1999 H1N1) | > 4 mM (inactive)
CC(C)[C@@H]1CC[C@@H](C)C[C@H]1O | Influenza A virus M2 proton channel (A/TW/4845/1999 H1N1) | > 4 mM (inactive)

Lookup: May I ask what Kd has been recorded for O=C1C[C@@H](c2ccccc2)Oc2cc(O)cc(O)c21 ?
Found: > 4 mM (inactive)

Lookup: State the recorded Kd for this entry: O=C(O)CNc1ncnc2nc[nH]c12
Found: > 4 mM (inactive)

Lookup: Which Kd is listed for COc1cc(O)cc(/C=C/c2ccccc2)c1 ?
Found: > 4 mM (inactive)

Lookup: Suppose we examine the compound CCC(=O)OC1[C@@H]2CC3=C4CC(=O)O[C@@H](c5ccoc5)[C@]4(C)CCC3C(C)(C2=O)[C@@H](CC(=O)OC)C1(C)C (some centres not stated) ; what Kd value has been reported?
Found: > 4 mM (inactive)

Lookup: Suppose we examine the compound CCOC(=O)CC1Sc2ccccc2NC1=S (configuration not stated) ; what Kd value has been reported?
Found: > 4 mM (inactive)
